Biological target: Protein deacetylase HDAC6 (Homo sapiens)
Sequence (Q9UBN7 whole entry): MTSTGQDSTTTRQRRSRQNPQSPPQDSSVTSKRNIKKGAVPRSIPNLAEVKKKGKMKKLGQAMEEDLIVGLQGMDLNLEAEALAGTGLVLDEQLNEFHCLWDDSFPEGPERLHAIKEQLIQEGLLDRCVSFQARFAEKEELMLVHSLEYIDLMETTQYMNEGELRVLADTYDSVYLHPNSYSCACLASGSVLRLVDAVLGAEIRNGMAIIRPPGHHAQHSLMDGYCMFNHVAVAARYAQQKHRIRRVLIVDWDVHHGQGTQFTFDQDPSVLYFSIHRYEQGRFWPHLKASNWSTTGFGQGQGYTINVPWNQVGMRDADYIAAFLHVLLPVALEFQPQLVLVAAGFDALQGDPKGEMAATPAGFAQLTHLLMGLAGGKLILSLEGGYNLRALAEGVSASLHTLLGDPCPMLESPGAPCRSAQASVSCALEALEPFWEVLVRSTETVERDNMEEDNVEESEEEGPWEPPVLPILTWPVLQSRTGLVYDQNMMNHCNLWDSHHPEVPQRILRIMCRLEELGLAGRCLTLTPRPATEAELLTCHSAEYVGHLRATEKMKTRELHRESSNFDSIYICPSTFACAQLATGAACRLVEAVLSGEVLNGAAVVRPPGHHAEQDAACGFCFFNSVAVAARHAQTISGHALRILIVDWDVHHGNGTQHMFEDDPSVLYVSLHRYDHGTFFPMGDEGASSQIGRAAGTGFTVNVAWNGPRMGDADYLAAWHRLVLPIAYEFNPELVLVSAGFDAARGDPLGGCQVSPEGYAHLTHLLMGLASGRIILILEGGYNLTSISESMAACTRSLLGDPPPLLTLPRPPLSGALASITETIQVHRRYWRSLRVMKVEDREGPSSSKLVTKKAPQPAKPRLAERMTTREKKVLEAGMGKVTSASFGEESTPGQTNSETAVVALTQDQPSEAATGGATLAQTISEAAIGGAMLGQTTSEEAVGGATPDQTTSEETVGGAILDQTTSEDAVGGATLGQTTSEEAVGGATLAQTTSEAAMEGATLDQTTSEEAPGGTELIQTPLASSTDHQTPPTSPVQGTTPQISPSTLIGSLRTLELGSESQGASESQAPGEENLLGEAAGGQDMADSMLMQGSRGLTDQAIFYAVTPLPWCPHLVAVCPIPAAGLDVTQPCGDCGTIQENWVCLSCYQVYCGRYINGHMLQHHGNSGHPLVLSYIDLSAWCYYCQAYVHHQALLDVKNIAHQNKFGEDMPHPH
Assay Metric: IC50

Exercise: Query the reported IC50 for Protein deacetylase HDAC6 (Homo sapiens); item: `CN1CCN(c2ccc([N+](=O)[O-])c(N)c2)CC1`
Key: > 200 µM

----------
Target: UniProt O15379
Sequence (O15379 whole entry): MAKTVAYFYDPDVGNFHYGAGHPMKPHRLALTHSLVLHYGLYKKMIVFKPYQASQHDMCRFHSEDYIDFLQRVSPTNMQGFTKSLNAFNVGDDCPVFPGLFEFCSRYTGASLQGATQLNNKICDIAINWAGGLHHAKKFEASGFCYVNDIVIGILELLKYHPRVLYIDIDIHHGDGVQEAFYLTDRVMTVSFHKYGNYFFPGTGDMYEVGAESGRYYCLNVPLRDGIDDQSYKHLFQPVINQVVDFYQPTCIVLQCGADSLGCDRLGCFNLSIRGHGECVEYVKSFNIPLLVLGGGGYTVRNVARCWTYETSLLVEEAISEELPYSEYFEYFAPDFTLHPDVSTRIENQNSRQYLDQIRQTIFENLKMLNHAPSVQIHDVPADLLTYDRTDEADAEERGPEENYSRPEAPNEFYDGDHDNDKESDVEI
Experiment: Inhibition of HDAC3 (unknown origin)
Assay Metric: IC50

Exercise: Can you share its IC50? I mean this compound: `CN1CCN(c2ccc([N+](=O)[O-])c(N)c2)CC1`
Key: > 200 µM

----------
Biological target: Histone deacetylase 5 (Homo sapiens, UniProt Q9UQL6)
Sequence (Q9UQL6 whole entry): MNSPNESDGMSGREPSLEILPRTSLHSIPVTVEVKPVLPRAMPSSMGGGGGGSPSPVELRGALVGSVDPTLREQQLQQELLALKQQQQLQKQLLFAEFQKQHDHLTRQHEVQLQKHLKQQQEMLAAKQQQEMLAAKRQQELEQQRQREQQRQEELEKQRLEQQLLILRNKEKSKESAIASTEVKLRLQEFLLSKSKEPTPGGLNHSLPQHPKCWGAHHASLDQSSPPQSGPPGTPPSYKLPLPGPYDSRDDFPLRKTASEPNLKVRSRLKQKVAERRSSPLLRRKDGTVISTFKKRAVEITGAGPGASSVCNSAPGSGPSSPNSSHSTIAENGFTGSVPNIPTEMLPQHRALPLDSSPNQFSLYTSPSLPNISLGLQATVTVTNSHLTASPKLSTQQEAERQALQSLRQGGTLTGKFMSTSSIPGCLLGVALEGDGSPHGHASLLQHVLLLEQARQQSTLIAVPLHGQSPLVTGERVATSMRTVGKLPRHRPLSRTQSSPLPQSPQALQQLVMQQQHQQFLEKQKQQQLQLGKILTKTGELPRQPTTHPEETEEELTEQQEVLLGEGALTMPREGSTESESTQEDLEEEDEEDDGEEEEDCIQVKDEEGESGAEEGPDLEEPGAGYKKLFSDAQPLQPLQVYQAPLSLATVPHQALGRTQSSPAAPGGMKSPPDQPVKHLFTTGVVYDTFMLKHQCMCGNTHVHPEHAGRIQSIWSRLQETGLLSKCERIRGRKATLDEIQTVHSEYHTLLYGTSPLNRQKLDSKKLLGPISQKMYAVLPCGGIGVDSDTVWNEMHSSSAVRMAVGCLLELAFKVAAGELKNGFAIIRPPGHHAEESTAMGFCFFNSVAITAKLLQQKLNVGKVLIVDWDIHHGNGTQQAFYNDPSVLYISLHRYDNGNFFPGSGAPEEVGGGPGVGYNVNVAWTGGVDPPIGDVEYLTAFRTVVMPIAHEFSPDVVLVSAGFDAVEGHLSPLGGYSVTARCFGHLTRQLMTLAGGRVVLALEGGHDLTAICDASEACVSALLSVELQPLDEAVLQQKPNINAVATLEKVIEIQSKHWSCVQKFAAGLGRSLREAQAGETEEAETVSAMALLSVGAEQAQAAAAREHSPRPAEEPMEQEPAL
Assay Metric: IC50

Exercise: # query: IC50 | item `CN1CCN(c2ccc([N+](=O)[O-])c(N)c2)CC1` | system: Histone deacetylase 5 (Homo sapiens, UniProt Q9UQL6)
Key: > 200 µM
